Tested on: Plasmodium falciparum
Experiment: Antiplasmodial activity against chloroquine-resistant Plasmodium falciparum W2 infected in human RBC assessed as decrease in parasite viability after 72 hrs by LDH assay
Format: functional
Conditions: W2, 72 h
Consider the following molecules; for each one, report its log10 of IC50.
The common logarithm of IC50 in µM is what is listed.

{"MOLECULE": "Clc1ccc2c(NCCn3cnc4c(N5CCCC5)nc(Cl)nc43)ccnc2c1", "REPORTED_RESULT": -0.01}
{"MOLECULE": "Clc1ccc2c(NCCn3cnc4c(N5CCSCC5)nc(Cl)nc43)ccnc2c1", "REPORTED_RESULT": -0.23}
{"MOLECULE": "Clc1ccc2c(NCCCn3cnc4c(N5CCSCC5)nc(Cl)nc43)ccnc2c1", "REPORTED_RESULT": 0.26}
{"MOLECULE": "Clc1ccc2c(NCCCn3cnc4c(N5CCCCCC5)nc(Cl)nc43)ccnc2c1", "REPORTED_RESULT": 0.38}
{"MOLECULE": "Clc1ccc2c(NCCn3cnc4c(N5CCCCC5)nc(Cl)nc43)ccnc2c1", "REPORTED_RESULT": 0.39}
{"MOLECULE": "CCN1CCN(c2nc(Cl)nc3c2ncn3CCNc2ccnc3cc(Cl)ccc23)CC1", "REPORTED_RESULT": -1.10}
{"MOLECULE": "Clc1ccc2c(NCCn3cnc4c(N5CCOCC5)nc(Cl)nc43)ccnc2c1", "REPORTED_RESULT": -0.65}
{"MOLECULE": "Clc1ccc2c(NCCCn3cnc4c(N5CCN(c6ccccc6)CC5)nc(Cl)nc43)ccnc2c1", "REPORTED_RESULT": -0.30}

Parameters: items (list). Returns: log10 of IC50 for each item.
1. Clc1ccc2c(NCCCn3cnc4c(N5CCCC5)nc(Cl)nc43)ccnc2c1
2. CN1CCN(c2nc(Cl)nc3c2ncn3CCNc2ccnc3cc(Cl)ccc23)CC1
3. CCN(CC)c1nc(Cl)nc2c1ncn2CCNc1ccnc2cc(Cl)ccc12
4. CN(C)c1nc(Cl)nc2c1ncn2CCNc1ccnc2cc(Cl)ccc12
5. Clc1ccc2c(NCCCn3cnc4c(N5CCCCC5)nc(Cl)nc43)ccnc2c1
6. Clc1ccc2c(NCCCn3cnc4c(N5CCOCC5)nc(Cl)nc43)ccnc2c1
7. CN1CCN(c2nc(Cl)nc3c2ncn3CCCNc2ccnc3cc(Cl)ccc23)CC1

[0.25, -0.91, 0.83, -0.44, 0.58, 0.06, -0.73]

====

Kindly state IC50 for each of the entries shown.
Test system: Plasmodium falciparum
Experiment: Antiplasmodial activity against chloroquine-resistant Plasmodium falciparum W2 infected in human RBC assessed as decrease in parasite viability after 72 hrs by LDH assay
Format: functional
Conditions: W2, 72 h

{"MOLECULE": "CCN1CCN(c2nc(Cl)nc3c2ncn3CCCNc2ccnc3cc(Cl)ccc23)CC1", "REPORTED_RESULT": "198 nM"}
{"MOLECULE": "CCN(CC)c1nc(Cl)nc2c1ncn2CCCNc1ccnc2cc(Cl)ccc12", "REPORTED_RESULT": "983 nM"}
{"MOLECULE": "Clc1ccc2c(NCCn3cnc4c(N5CCN(c6ccccc6)CC5)nc(Cl)nc43)ccnc2c1", "REPORTED_RESULT": "428 nM"}
{"MOLECULE": "CN(C)c1nc(Cl)nc2c1ncn2CCCNc1ccnc2cc(Cl)ccc12", "REPORTED_RESULT": "1090 nM"}

Next compound, IC50 to be filled in.
Suppose we examine the compound Clc1ccc2c(NCCn3cnc4c(N5CCCCCC5)nc(Cl)nc43)ccnc2c1 ; what IC50 value has been reported? 729 nM

====

Experiment: Selectivity index, ratio of IC50 for African green monkey Vero cells to IC50 for chloroquine-resistant Plasmodium falciparum W2 infected in human RBC
Assay type: toxicity
Conditions: read-out: Ratio IC50
PARAMETER: selectivity ratio

Dear reader, for each entry below, please note its selectivity ratio.
1. Clc1ccc2c(NCCCn3cnc4c(N5CCCC5)nc(Cl)nc43)ccnc2c1
2. Clc1ccc2c(NCCn3cnc4c(N5CCCCC5)nc(Cl)nc43)ccnc2c1
3. Clc1ccc2c(NCCCn3cnc4c(N5CCCCCC5)nc(Cl)nc43)ccnc2c1

> 6.1
> 4.4
> 4.3

Would you be so kind as to report selectivity ratio for each listed record?
1. CCN(CC)c1nc(Cl)nc2c1ncn2CCCNc1ccnc2cc(Cl)ccc12
2. CN1CCN(c2nc(Cl)nc3c2ncn3CCNc2ccnc3cc(Cl)ccc23)CC1
3. Clc1ccc2c(NCCCn3cnc4c(N5CCOCC5)nc(Cl)nc43)ccnc2c1
4. CCN1CCN(c2nc(Cl)nc3c2ncn3CCNc2ccnc3cc(Cl)ccc23)CC1
5. CN(C)c1nc(Cl)nc2c1ncn2CCCNc1ccnc2cc(Cl)ccc12
6. Clc1ccc2c(NCCn3cnc4c(N5CCCC5)nc(Cl)nc43)ccnc2c1
7. Clc1ccc2c(NCCn3cnc4c(N5CCN(c6ccccc6)CC5)nc(Cl)nc43)ccnc2c1

["> 10.9", "> 85.4", "> 9.1", "> 125", "> 10.5", "> 11.3", 9.4]
